- system tested: CHK1 (Homo sapiens (Human), UniProt O14757)
- Sequence (O14757 whole entry): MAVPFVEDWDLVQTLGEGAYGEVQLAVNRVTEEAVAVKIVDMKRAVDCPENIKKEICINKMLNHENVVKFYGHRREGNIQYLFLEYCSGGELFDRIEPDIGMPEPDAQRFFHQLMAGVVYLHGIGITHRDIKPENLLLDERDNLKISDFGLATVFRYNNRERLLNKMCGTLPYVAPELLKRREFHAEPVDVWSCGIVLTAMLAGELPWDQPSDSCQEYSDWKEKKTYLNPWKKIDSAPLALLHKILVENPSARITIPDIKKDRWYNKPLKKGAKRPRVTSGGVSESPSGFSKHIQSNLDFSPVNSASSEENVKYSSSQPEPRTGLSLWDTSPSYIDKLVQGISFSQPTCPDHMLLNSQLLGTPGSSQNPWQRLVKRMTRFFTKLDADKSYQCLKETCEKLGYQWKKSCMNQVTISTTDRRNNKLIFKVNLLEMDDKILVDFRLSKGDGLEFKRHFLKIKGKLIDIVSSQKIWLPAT
- experimental protocol: Inhibitor potency vs. CHK1 (Assay 1A DELFIA or Assay 1B Caliper format)
- Format: biochemical
- measurement setup: Assay 1A (DELFIA) or Assay 1B (Caliper); read-out: CHK1 IC50
endpoint label: IC50

# annotated cases, reported IC50 shown
C[C@H](CN(C)C)Oc1nc(Nc2cc(N(C)C)c(-c3cnn(C)c3)cn2)cnc1C#N :: < 20 nM
CNc1cc(Nc2cnc(C#N)c(O[C@@H]3CCNC3)n2)ncc1C#CC(C)(C)O :: < 20 nM

Let's switch to this compound now.
Asked: For COc1cc(Nc2cnc(C#N)c(O[C@H](C)CN(C)C)n2)ncc1-c1cnn(C)c1 , what is its reported IC50?
Given back: 6 nM
